System: CLZ3 (HCA2 human fibroblast dual HR-NHEJ reporter)
Experiment: NHEJ repair efficiency (GFP+ cells) relative to control (log10 fold); higher = more non-homologous end joining
Settings: 5 µM; doxycycline 0.5 ug/mL
Assign NHEJ repair efficiency (log10) to each entry below.
Output: the number by itself.

[in] Give NHEJ repair efficiency (log10); test system CLZ3 (HCA2 human fibroblast dual HR-NHEJ reporter); molecule CCN1C[C@@]2(COC)[C@H]3[C@@H](OC)[C@H]4C1[C@]3([C@@H](OC)C[C@H]2OC(C)=O)[C@@H]1C[C@@]2(O)[C@H](OC(=O)c3ccccc3)[C@@H]1[C@]4(OC(C)=O)[C@@H](O)[C@@H]2OC [Acetylaconitine]
[out] -0.0797

[in] Give NHEJ repair efficiency (log10); test system CLZ3 (HCA2 human fibroblast dual HR-NHEJ reporter); molecule C=C(C)C1CC=C(C=O)CC1 (stereo unspecified) [Perillaldehyde]
[out] 0.0128

[in] Give NHEJ repair efficiency (log10); test system CLZ3 (HCA2 human fibroblast dual HR-NHEJ reporter); molecule CC(C)=CCC[C@](C)(O)[C@H]1CC[C@]2(C)[C@@H]1[C@H](O)C[C@@H]1[C@@]3(C)CC[C@H](O)C(C)(C)[C@@H]3[C@@H](O[C@@H]3O[C@H](CO)[C@@H](O)[C@H](O)[C@H]3O)C[C@]12C [Ginsenoside Rh1]
[out] -0.0663

[in] Give NHEJ repair efficiency (log10); test system CLZ3 (HCA2 human fibroblast dual HR-NHEJ reporter); molecule C=C1[C@H]2C[C@@]3([C@@H]1O)[C@@H](CC2=O)[C@]12[C@@H]4C[C@H]3[C@H]1N(CC)C[C@]4(C)CC[C@@H]2O [Songorine]
[out] -0.0383

[in] Give NHEJ repair efficiency (log10); test system CLZ3 (HCA2 human fibroblast dual HR-NHEJ reporter); molecule COc1cc2c(cc1OC)[C@@]13CCN4CC5=CCO[C@H]6CC(=O)N2[C@H]1[C@H]6[C@H]5C[C@H]43 [Brucine]
[out] -0.228

[in] Give NHEJ repair efficiency (log10); test system CLZ3 (HCA2 human fibroblast dual HR-NHEJ reporter); molecule COc1cccc2c1cc([N+](=O)[O-])c1c(C(=O)O)cc3c(c12)OCO3 [Aristolochic acid A]
[out] 0.203

----------
Test system: CLZ3 (HCA2 human fibroblast dual HR-NHEJ reporter)
Assay: NHEJ repair efficiency (GFP+ cells) relative to control (log10 fold); higher = more non-homologous end joining
Conditions: 5 µM; doxycycline 0.5 ug/mL
Assign NHEJ repair efficiency (log10) to each entry below.
Output: the number by itself.

[in] State, in one line, measured NHEJ repair efficiency (log10) of "O=c1ccc2cc(O[C@@H]3O[C@H](CO)[C@@H](O)[C@H](O)[C@H]3O)c(O)cc2o1"
[out] 0.023

[in] State, in one line, measured NHEJ repair efficiency (log10) of "C[C@@H]1CC[C@H]2[C@@H](C)C(=O)O[C@@H]3O[C@@]4(C)CC[C@@H]1[C@]32OO4"
[out] 0.1

[in] State, in one line, measured NHEJ repair efficiency (log10) of CC(C)=CCC[C@@](C)(O)[C@H]1CC[C@]2(C)[C@@H]1[C@H](O)C[C@@H]1[C@@]3(C)CC[C@H](O[C@@H]4O[C@H](CO)[C@@H](O)[C@H](O)[C@H]4O)C(C)(C)[C@@H]3CC[C@]12C [R-Ginsenoside Rh2]
[out] -0.0662

[in] State, in one line, measured NHEJ repair efficiency (log10) of "COC[C@@]12CC[C@H](OC)[C@]34C([C@H]([C@H](OC)[C@H]13)[C@]1(O)[C@H]3[C@@H](OC(=O)c5ccccc5)[C@](O)(C[C@H]34)[C@@H](OC)[C@@H]1O)N(C)C2"
[out] -0.013

[in] State, in one line, measured NHEJ repair efficiency (log10) of "CCN1C[C@]2(COC)CC[C@H](OC)[C@]34C1[C@H]([C@H](OC)[C@H]23)[C@@]1(O)C[C@H](OC)[C@H]2C[C@@H]4[C@@H]1[C@H]2O"
[out] 0.0232

[in] State, in one line, measured NHEJ repair efficiency (log10) of "C=C[C@@H](O)C#CC#C[C@@H](O)/C=C\CCCCCCC"
[out] -0.109

----------
Assign HR repair efficiency (log10) to each entry below.
Tested on: CLZ3 (HCA2 human fibroblast dual HR-NHEJ reporter)
Test: HR repair efficiency (tdTomato+ cells) relative to control (log10 fold); higher = more homologous recombination
Details: 5 µM; doxycycline 0.5 ug/mL
Output: the number by itself.

[in] Give HR repair efficiency (log10); test system CLZ3 (HCA2 human fibroblast dual HR-NHEJ reporter); molecule C[C@H]1CC[C@@H]2N(C1)C[C@H]1[C@@H]3C[C@H]4[C@@H](C[C@H](O)[C@H]5C[C@@H](O)CC[C@@]54C)[C@@H]3CC[C@@H]1[C@]2(C)O [Peimine]
[out] -0.0412

[in] Give HR repair efficiency (log10); test system CLZ3 (HCA2 human fibroblast dual HR-NHEJ reporter); molecule N#C/C=C1/C=C[C@@H](O)[C@H](O)[C@H]1O[C@@H]1O[C@H](CO)[C@@H](O)[C@H](O)[C@H]1O [Lithospermoside]
[out] 0.0424

[in] Give HR repair efficiency (log10); test system CLZ3 (HCA2 human fibroblast dual HR-NHEJ reporter); molecule CC(C)(C)[C@]1(O)CC2OC(=O)CC23C(=O)OC2OC(=O)[C@H](O)C231 (some centres not stated) [Bilobalide]
[out] 0.0541

[in] Give HR repair efficiency (log10); test system CLZ3 (HCA2 human fibroblast dual HR-NHEJ reporter); molecule COc1cc([C@H]2OC[C@H]3[C@H]2CO[C@@H]3c2cc(OC)c(O[C@@H]3O[C@H](CO)[C@@H](O)[C@H](O)[C@H]3O)c(OC)c2)cc(OC)c1O[C@@H]1O[C@H](CO)[C@@H](O)[C@H](O)[C@H]1O [Eleutheroside D]
[out] -0.0848

[in] Give HR repair efficiency (log10); test system CLZ3 (HCA2 human fibroblast dual HR-NHEJ reporter); molecule CC(C)=CCCC(C)(O)C1CCC2(C)C1C(O)CC1C3(C)CCC(O)C(C)(C)C3C(OC3OC(CO)C(O)C(O)C3O)CC12C (configuration not stated) [R-Ginsenoside Rh1]
[out] 0.0565

[in] Give HR repair efficiency (log10); test system CLZ3 (HCA2 human fibroblast dual HR-NHEJ reporter); molecule O=c1cccc2n1C[C@@H]1CNC[C@H]2C1 [Cytisine]
[out] 0.264

[in] Give HR repair efficiency (log10); test system CLZ3 (HCA2 human fibroblast dual HR-NHEJ reporter); molecule O=c1ccc2cc3ccoc3c(O)c2o1 [Xanthotoxol]
[out] -0.0752

----------
Test system: CLZ3 (HCA2 human fibroblast dual HR-NHEJ reporter)
Test: HR repair efficiency (tdTomato+ cells) relative to control (log10 fold); higher = more homologous recombination
Conditions: 5 µM; doxycycline 0.5 ug/mL
Where a name gives a salt, the structure may show the parent alone.
Test readout: HR repair efficiency (log10)
Output: the number by itself.

[in] State, in one line, measured HR repair efficiency (log10) of "N#C[C@H](O[C@@H]1O[C@H](CO[C@@H]2O[C@H](CO)[C@@H](O)[C@H](O)[C@H]2O)[C@@H](O)[C@H](O)[C@H]1O)c1ccccc1"
[out] 0.107

[in] State, in one line, measured HR repair efficiency (log10) of "CC(C)=CCOc1c2occc2cc2ccc(=O)oc12"
[out] 0.135

[in] State, in one line, measured HR repair efficiency (log10) of CN1[C@@H]2C[C@@H](OC(=O)[C@H](CO)c3ccccc3)C[C@H]1[C@@H]1O[C@@H]12 [Scopolamine Hydrobromide]
[out] -0.0275

[in] State, in one line, measured HR repair efficiency (log10) of "CC(=O)[C@]1(O)CC[C@@]2(O)[C@]1(C)[C@H](OC(=O)/C=C(\C)C(C)C)C[C@@H]1[C@@]3(C)CC[C@H](O)CC3=CC[C@]12O"
[out] -0.0376

[in] State, in one line, measured HR repair efficiency (log10) of COc1cc(C(=O)OC2C3C=COC(OC4OC(CO)C(O)C(O)C4O)C3C3(CO)OC23)ccc1O (centres undefined) [Amphicoside Ii]
[out] -0.0261

[in] State, in one line, measured HR repair efficiency (log10) of "COC[C@@]12CC[C@H](OC)[C@]34C(C([C@H](OC)[C@H]13)[C@]1(OC(C)=O)[C@H]3[C@@H](OC(=O)c5ccccc5)[C@](O)(C[C@H]34)[C@@H](OC)[C@@H]1O)N(C)C2"
[out] 0.0965

[in] State, in one line, measured HR repair efficiency (log10) of "COc1cc2c3c(c1OC)-c1ccccc1C[C@H]3N(C)CC2"
[out] 0.137

[in] State, in one line, measured HR repair efficiency (log10) of "O=C1C=CC(=O)c2c(O)cccc21"
[out] -0.281

[in] State, in one line, measured HR repair efficiency (log10) of COc1cc(C2OCC3C(c4cc(OC)c(O[C@@H]5O[C@H](CO)[C@@H](O)[C@H](O)[C@H]5O)c(OC)c4)OCC23)cc(OC)c1O[C@H]1O[C@@H](CO)[C@H](O)[C@@H](O)[C@@H]1O (some centres undefined) [Eleutheroside E]
[out] -0.0597

[in] State, in one line, measured HR repair efficiency (log10) of CNCC(O)c1ccc(O)cc1 (centres undefined) [Synephrine]
[out] 0.108

[in] State, in one line, measured HR repair efficiency (log10) of "CN[C@@H](Cc1c[nH]c2ccccc12)C(=O)O"
[out] -0.21

[in] State, in one line, measured HR repair efficiency (log10) of CN[C@@H](C)[C@H](O)c1ccccc1 [Ephedrine hydrochloride]
[out] -0.0579

[in] State, in one line, measured HR repair efficiency (log10) of CC(C)=CCC[C@](C)(O)[C@H]1CC[C@]2(C)[C@@H]1[C@H](O)C[C@@H]1[C@@]3(C)CC[C@H](O)C(C)(C)[C@@H]3[C@@H](O[C@@H]3O[C@H](CO)[C@@H](O)[C@H](O)[C@H]3O)C[C@]12C [Ginsenoside Rh1]
[out] 0.25

[in] State, in one line, measured HR repair efficiency (log10) of "CCN1C[C@]2(COC)CC[C@H](O)C34C1C([C@H](OC)[C@@H]32)[C@]1(O)[C@@H]2[C@H]4CC([C@@H](OC)[C@@H]1O)[C@@H]2O"
[out] 0.0271
